# Assayed System: D(3) dopamine receptor (Homo sapiens, UniProt P35462, S182I)
# Sequence (P35462 as listed by the source S182I): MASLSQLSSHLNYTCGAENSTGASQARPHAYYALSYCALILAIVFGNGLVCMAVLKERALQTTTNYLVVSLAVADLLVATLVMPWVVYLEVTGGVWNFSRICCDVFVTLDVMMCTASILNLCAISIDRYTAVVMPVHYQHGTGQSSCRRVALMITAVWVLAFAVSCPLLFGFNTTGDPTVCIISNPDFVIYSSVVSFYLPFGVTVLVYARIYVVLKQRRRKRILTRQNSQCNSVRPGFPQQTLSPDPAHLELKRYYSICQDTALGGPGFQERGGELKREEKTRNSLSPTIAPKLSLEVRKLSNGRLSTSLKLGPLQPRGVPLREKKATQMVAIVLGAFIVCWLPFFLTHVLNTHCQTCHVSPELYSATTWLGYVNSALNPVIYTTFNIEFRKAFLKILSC
# Assay Summary: Displacement of [125I]IABN from human D3R S182I mutant expressed in HEK293 cell membranes by gamma counting method
Observable: pKi
Would you please state pKi, meaning minus log10 of the concentration in mol/L, as a bare number?

Consider the worked cases shown below.
1. CN(C)Cc1cccc2nc(C(=O)NCCCCN3CCN(c4cc(C(F)(F)F)nc(C(C)(C)C)n4)CC3)cn12	7.62
2. CN(C)Cc1c(C(=O)NCCCCN2CCN(c3cc(C(F)(F)F)nc(C(C)(C)C)n3)CC2)nc2ccccn12	7.80

Report value: pKi, system: D(3) dopamine receptor (Homo sapiens, UniProt P35462, S182I), compound: CC(C)(C)c1nc(N2CCN(CCCCNC(=O)c3cn4ccccc4n3)CC2)cc(C(F)(F)F)n1
7.92

* * *

Listed here: items and their measured Ki.
# Assayed System: D(3) dopamine receptor (Homo sapiens, UniProt P35462, E90Q)
# Sequence (P35462 as listed by the source E90Q): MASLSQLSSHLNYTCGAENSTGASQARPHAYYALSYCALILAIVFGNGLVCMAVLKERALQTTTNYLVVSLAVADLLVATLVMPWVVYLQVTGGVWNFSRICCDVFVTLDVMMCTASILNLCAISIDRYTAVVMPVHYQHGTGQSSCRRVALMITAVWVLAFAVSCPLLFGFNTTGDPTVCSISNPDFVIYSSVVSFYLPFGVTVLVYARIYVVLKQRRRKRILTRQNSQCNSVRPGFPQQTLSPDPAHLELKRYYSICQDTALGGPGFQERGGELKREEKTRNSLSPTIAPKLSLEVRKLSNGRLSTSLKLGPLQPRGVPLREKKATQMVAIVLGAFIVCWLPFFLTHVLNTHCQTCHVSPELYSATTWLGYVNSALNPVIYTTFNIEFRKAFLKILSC
# Assay Summary: Displacement of [125I]IABN from human D3R E90Q mutant expressed in HEK293 cell membranes by gamma counting method
Just the number please, in nM, no unit attached.

Consider the worked cases shown below.
1. CC(C)(C)c1nc(N2CCN(CCCCNC(=O)c3cn4ccccc4n3)CC2)cc(C(F)(F)F)n1	20
2. CN(C)Cc1cccc2nc(C(=O)NCCCCN3CCN(c4cc(C(F)(F)F)nc(C(C)(C)C)n4)CC3)cn12	12

The record that follows has no Ki shown yet.
Report value: Ki, system: D(3) dopamine receptor (Homo sapiens, UniProt P35462, E90Q), compound: CN(C)Cc1c(C(=O)NCCCCN2CCN(c3cc(C(F)(F)F)nc(C(C)(C)C)n3)CC2)nc2ccccn12
19

* * *

# Assayed System: UniProtKB P14416
# Assay Summary: Displacement of [125I]IABN from human D2LR expressed in HEK293 cell membranes by gamma counting method
Observable: pKi
Would you please state pKi, meaning minus log10 of the concentration in mol/L, as a bare number?

Consider the worked cases shown below.
1) Cc1cc(N2CCN(CCCCNC(=O)c3cn4ccccc4n3)CC2)nc(C(F)(F)F)n1	5.44
2) O=C(NCCCCN1CCN(c2cccc(C(F)(F)F)c2)CC1)c1cn2ccccc2n1	6.79
3) CC(C)(C)c1nc(N2CCN(CCCCNC(=O)c3nc4ccccc4[nH]3)CC2)cc(C(F)(F)F)n1	6.47
4) O=C(NCCCCN1CCN(c2ccc3ccccc3n2)CC1)c1cn2ccccc2n1	5.81

The record that follows has no pKi shown yet.
Return the recorded pKi value; entry: CC(C)(C)c1nc(N2CCN(CCCCNC(=O)c3cc4cccnc4s3)CC2)cc(C(F)(F)F)n1
6.17

* * *

Listed here: items and their measured pKi.
# Assayed System: UniProt P35462
# Assay Summary: Displacement of [125I]IABN from human D3R expressed in HEK293 cell membranes by gamma counting method
Would you please state pKi, meaning minus log10 of the concentration in mol/L, as a bare number?

1. CC(C)(C)c1nc(N2CCN(CCCCNC(=O)c3sc4ncccc4c3N)CC2)cc(C(F)(F)F)n1	7.46
2. Cc1nc(N2CCN(CCCCNC(=O)c3cn4ccccc4n3)CC2)cc(C(F)(F)F)n1	5.70
3. O=C(NCCCCN1CCN(c2cccc(Cl)c2Cl)CC1)c1cn2ccccc2n1	9.52

Return the recorded pKi value; entry: O=C(NCCCCN1CCN(c2ccc3ccccc3n2)CC1)c1cn2ccccc2n1
7.11

Return the recorded pKi value; entry: O=C(NCCCCN1CCN(c2ccccc2)CC1)c1cn2ccccc2n1
8.00

Return the recorded pKi value; entry: Cc1cc(N2CCN(CCCCNC(=O)c3cn4ccccc4n3)CC2)nc(C(F)(F)F)n1
6.83

* * *

# Assayed System: D(2) dopamine receptor (Homo sapiens)
# Assay Summary: Antagonist activity against human D2LR expressed in CHOK1 cells assessed as inhibition of pergolide-induced beta-arrestin translocation by beta-galactosidase based beta-arrestin recruitment assay
# Type: cell-based, CHO-K1
Label scheme for IC50: low: < 50 nM; intermediate: ≥ 50 nM and < 200 nM; high: ≥ 200 nM

Check out these entries, answers already filled in.
1. O=C(NCCCCN1CCN(c2ncnc3ccccc23)CC1)c1cn2ccccc2n1	high
2. CC(C)(C)c1nc(N2CCN(CCCCNC(=O)c3cn4cccnc4n3)CC2)cc(C(F)(F)F)n1	low
3. O=C(NCCCCN1CCN(c2ccnc3ccccc23)CC1)c1cn2ccccc2n1	intermediate
4. CC(C)(C)c1nc(N2CCN(CCCCNC(=O)c3cc4ccccc4[nH]3)CC2)cc(C(F)(F)F)n1	high
5. COc1ccccc1N1CCN(CCCCNC(=O)c2cn3ccccc3n2)CC1	low
6. O=C(NCCCCN1CCN(c2cccc(C(F)(F)F)c2)CC1)c1cn2ccccc2n1	intermediate
7. CC(C)(C)c1nc(N2CCN(CCCCNC(=O)c3nc4ccccc4[nH]3)CC2)cc(C(F)(F)F)n1	high
8. CC(C)(C)c1nc(N2CCN(CCCCNC(=O)c3cn4nc(Cl)ccc4n3)CC2)cc(C(F)(F)F)n1	low

Entry CN(C)Cc1c(C(=O)NCCCCN2CCN(c3cc(C(F)(F)F)nc(C(C)(C)C)n3)CC2)[nH]c2ccccc12 belongs to which category?
high

Entry O=C(NCCCCN1CCN(c2cccc(Cl)c2Cl)CC1)c1cn2ccccc2n1 belongs to which category?
intermediate

* * *

# Assayed System: D(2) dopamine receptor (Homo sapiens, UniProt P14416)
# Sequence (P14416 whole entry): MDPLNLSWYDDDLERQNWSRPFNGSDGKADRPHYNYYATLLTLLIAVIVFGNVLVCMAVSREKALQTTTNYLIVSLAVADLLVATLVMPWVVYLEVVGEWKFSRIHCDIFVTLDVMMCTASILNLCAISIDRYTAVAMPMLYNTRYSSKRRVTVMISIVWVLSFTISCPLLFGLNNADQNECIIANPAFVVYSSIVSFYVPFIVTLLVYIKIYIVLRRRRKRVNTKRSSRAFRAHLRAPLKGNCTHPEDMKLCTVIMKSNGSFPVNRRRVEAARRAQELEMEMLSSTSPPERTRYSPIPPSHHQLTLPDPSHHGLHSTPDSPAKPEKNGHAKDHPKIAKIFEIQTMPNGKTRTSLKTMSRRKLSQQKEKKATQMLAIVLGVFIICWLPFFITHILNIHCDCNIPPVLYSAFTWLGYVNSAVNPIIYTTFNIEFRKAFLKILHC
# Assay Summary: Displacement of [125I]IABN from chimeric human D2 receptor possessing extracellular loop II of D3 receptor expressed in HEK293 cell membranes by gamma counting method
Listed here: items and their measured Ki.
Just the number please, in nM, no unit attached.

Consider the worked cases shown below.
1) CN(C)Cc1cccc2nc(C(=O)NCCCCN3CCN(c4cc(C(F)(F)F)nc(C(C)(C)C)n4)CC3)cn12	176
2) CN(C)Cc1c(C(=O)NCCCCN2CCN(c3cc(C(F)(F)F)nc(C(C)(C)C)n3)CC2)nc2ccccn12	72

The record that follows has no Ki shown yet.
Return the recorded Ki value; entry: CC(C)(C)c1nc(N2CCN(CCCCNC(=O)c3cn4ccccc4n3)CC2)cc(C(F)(F)F)n1
148

* * *

# Species: Homo sapiens
# Assay Summary: Selectivity index, ratio of IC50 for human D2LR to IC50 for human D3R by beta-galactosidase based beta-arrestin recruitment assay
Listed here: items and their measured Ratio IC50.

1. O=C(NCCCCN1CCN(c2ncnc3ccccc23)CC1)c1cn2ccccc2n1	0.6

Return the recorded Ratio IC50 value; entry: CN(C)Cc1cccc2nc(C(=O)NCCCCN3CCN(c4cc(C(F)(F)F)nc(C(C)(C)C)n4)CC3)cn12
9.7

Return the recorded Ratio IC50 value; entry: CN(C)Cc1c(C(=O)NCCCCN2CCN(c3cc(C(F)(F)F)nc(C(C)(C)C)n3)CC2)[nH]c2ccccc12
22

* * *

Listed here: items and their measured Activity.
# Assayed System: D(2) dopamine receptor (Homo sapiens)
# Assay Summary: Agonist activity at human D2R expressed in CHO cells assessed as stimulation of mitogenesis at 10 uM after 24 hrs by [3H]thymidine uptake assay relative to quinpirole
# Format: cell-based

Consider the worked cases shown below.
1. COc1ccccc1N1CCN(CCCCNC(=O)c2cn3ccccc3n2)CC1	< 20%
2. CC(C)(C)c1nc(N2CCN(CCCCNC(=O)c3nc4ccccc4[nH]3)CC2)cc(C(F)(F)F)n1	< 20%
3. O=C(NCCCCN1CCN(c2cccc(Cl)c2Cl)CC1)c1cn2ccccc2n1	< 20%

Return the recorded Activity value; entry: CC(C)(C)c1nc(N2CCN(CCCCNC(=O)c3cn4cccnc4n3)CC2)cc(C(F)(F)F)n1
< 1%

Return the recorded Activity value; entry: CC(C)(C)c1nc(N2CCN(CCCCNC(=O)c3cn4ccccc4n3)CC2)cc(C(F)(F)F)n1
0%

Return the recorded Activity value; entry: CC(C)(C)c1nc(N2CCN(CCCCNC(=O)c3cn4ccncc4n3)CC2)cc(C(F)(F)F)n1
< 20%

Return the recorded Activity value; entry: CC(C)(C)c1nc(N2CCN(CCCCNC(=O)c3cn4nc(Cl)ccc4n3)CC2)cc(C(F)(F)F)n1
< 1%

* * *

# Assayed System: D(3) dopamine receptor (Homo sapiens, UniProt P35462)
# Sequence (P35462 whole entry): as the sequence (P35462 as listed by the source E90Q) above, with S9G, Q90E counted along it
# Assay Summary: Displacement of [125I]IABN from chimeric human D3 receptor possessing extracellular loop II of D2 receptor expressed in HEK293 cell membranes by gamma counting method
Listed here: items and their measured Ki.
Remember to quote the unit after the number.

1. CC(C)(C)c1nc(N2CCN(CCCCNC(=O)c3cn4ccccc4n3)CC2)cc(C(F)(F)F)n1	40 nM
2. CN(C)Cc1cccc2nc(C(=O)NCCCCN3CCN(c4cc(C(F)(F)F)nc(C(C)(C)C)n4)CC3)cn12	44 nM

Report value: Ki, system: D(3) dopamine receptor (Homo sapiens, UniProt P35462), compound: CN(C)Cc1c(C(=O)NCCCCN2CCN(c3cc(C(F)(F)F)nc(C(C)(C)C)n3)CC2)nc2ccccn12
27 nM
